Please go through the items and note down their pKi.
- measured-target: UniProt P08473
- test-summary: In vitro enzyme inhibition assay at human NEP (Assay 1)
- Assay type: biochemical
- reported-conditions: reported as ranges

**Query** // pKi lookup, key: O=C(O)C(=O)NN(Cc1ccc(-c2cc(Cl)ccc2F)cc1Cl)C[C@@H](O)C(=O)O [Example 5-13]
**Result** ≥9

**Query** Another: O=C(O)C(=O)N[C@H](Cc1ccc(-c2cc(Cl)ccc2F)cc1)C[C@@H](O)C(=O)O [Example 5-5]
**Result** ≥9

**Query** Another: CCOC(=O)[C@H](O)C[C@@H](Cc1ccc(-c2cccc(Cl)c2)cc1Cl)NC(=O)C(=O)O [Example 5-17]
**Result** ≥9

**Query** Another: CC(C)COC(=O)C(=O)N[C@H](Cc1ccc(-c2cccc(Cl)c2)cc1)C[C@@](C)(CO)C(=O)O [Example 11-4]
**Result** 8.0-8.9

**Query** Another: C[C@@](CO)(C[C@@H](Cc1ccc(-c2ccccc2F)cc1)NC(=O)C(=O)O)C(=O)O [Example 11-1]
**Result** 8.0-8.9

**Query** Another: Cc1ccc(Cl)cc1-c1ccc(C[C@H](C[C@@H](O)C(=O)O)NC(=O)C(=O)O)cc1 [Example 5-1]
**Result** ≥9

**Query** Another: CC(C)OC(=O)C(=O)N[C@H](Cc1ccc(-c2cc(Cl)ccc2F)cc1)C[C@@H](O)C(=O)O [Example 5-15]
**Result** ≥9
